Assignment: determine reported Firefly LBD, cmpd/DMSO (mean) for the given compounds.
Biological target: NR2F6 LBD (Homo sapiens, UniProt P10588)
Construct: expressed in transfected cells
Sequence (P10588 165-393 limits assumed): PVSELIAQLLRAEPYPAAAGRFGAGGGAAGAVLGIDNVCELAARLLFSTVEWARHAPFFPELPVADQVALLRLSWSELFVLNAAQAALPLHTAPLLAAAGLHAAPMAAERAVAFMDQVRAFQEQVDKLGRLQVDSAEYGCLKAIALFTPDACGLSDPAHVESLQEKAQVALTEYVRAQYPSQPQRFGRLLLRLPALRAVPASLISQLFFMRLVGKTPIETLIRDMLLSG
Assay: NR2F6 LBD transient transfection
Assay type: cell-based
Conditions: 0.5 uM
Just the number, please, no unit after it.

For the compound shown here, O=S1(=O)C[C@H](N2CCCC2)[C@@H](S(=O)(=O)c2cccs2)C1 , give the reported Firefly LBD, cmpd/DMSO (mean).
1.3

What value of Firefly LBD, cmpd/DMSO (mean) has been reported for the following compound? COCCN[C@H]1CS(=O)(=O)C[C@@H]1S(=O)(=O)c1ccc(Cl)cc1
1.0

Query (compound): O=S1(=O)C[C@H](NCc2ccco2)[C@@H](S(=O)(=O)c2cccs2)C1 ; field requested: Firefly LBD, cmpd/DMSO (mean)
1.4

Look up Firefly LBD, cmpd/DMSO (mean) for this compound: CC(C)CCN[C@H]1CS(=O)(=O)C[C@@H]1S(=O)(=O)c1ccc(Cl)cc1
0.8

Requested field: Firefly LBD, cmpd/DMSO (mean). Item: O=S1(=O)C[C@H](NCC2CCCO2)[C@@H](S(=O)(=O)c2cccs2)C1 (stereo partly shown)
1.5

Given the compound O=S1(=O)C[C@H](NCCCc2ccccc2)[C@@H](S(=O)(=O)c2ccc(Cl)cc2)C1 , what is its reported Firefly LBD, cmpd/DMSO (mean)?
1.1

Consider the compound CC(C)OCCCN[C@H]1CS(=O)(=O)C[C@@H]1S(=O)(=O)c1ccc(Cl)cc1 and give its measured Firefly LBD, cmpd/DMSO (mean).
1.3

Reference for the values: patent US11377442B2
